Reference for the values: paper PMC8220737

STUDY TARGET: UniProt P00591
Sequence (P00591 whole entry): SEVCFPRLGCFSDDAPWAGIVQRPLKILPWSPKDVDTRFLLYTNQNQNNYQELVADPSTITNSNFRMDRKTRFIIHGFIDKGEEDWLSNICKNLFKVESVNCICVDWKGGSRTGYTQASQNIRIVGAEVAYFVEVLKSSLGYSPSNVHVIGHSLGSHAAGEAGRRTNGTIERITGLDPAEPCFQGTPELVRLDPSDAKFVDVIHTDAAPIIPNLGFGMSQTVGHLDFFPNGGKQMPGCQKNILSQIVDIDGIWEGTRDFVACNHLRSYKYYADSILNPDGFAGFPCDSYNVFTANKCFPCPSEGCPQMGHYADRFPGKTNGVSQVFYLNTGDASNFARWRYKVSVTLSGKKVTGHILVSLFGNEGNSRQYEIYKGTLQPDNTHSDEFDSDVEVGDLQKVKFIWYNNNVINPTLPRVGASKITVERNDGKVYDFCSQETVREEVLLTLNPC
ASSAY PROTOCOL: Anti-lipase activity (PNPB hydrolysis)
Type: biochemical
SETTINGS: five dilutions 40, 100, 200, 300, 400 µg/ml; orlistat positive control
Reported IC50 (µg/ml) Lipase values follow for various compounds
ENDPOINT NAME: IC50 (µg/ml) Lipase

COC(=O)Cc1cc2c(cc1C(=O)c1cccc(Br)c1)OCO2 [3f] :: > 400 µg/mL
O=C(O)Cc1cc2c(cc1C(=O)c1ccccc1I)OCO2 [4d] :: 187.7 ± 1.23 µg/mL
COc1ccc(NC(=O)c2ccc3c(c2)OCO3)cc1OC [6a] :: 44.47 ± 2.30 µg/mL
COC(=O)Cc1cc2c(cc1C(=O)c1cccc(I)c1)OCO2 [3d] :: 118.86 ± 2.1 µg/mL
COC(=O)Cc1cc2c(cc1C(=O)c1ccccc1Br)OCO2 [3e] :: 78.37 ± 1.72 µg/mL
COC(=O)Cc1cc2c(cc1C(=O)c1ccccc1)OCO2 [3b] :: > 400 µg/mL
